Documented pIC50 across a set of molecules
tested_on: baculovirus-expressed ALK (Homo sapiens, UniProt Q9UM73)
Construct: host or cells: baculovirus expression system
Sequence (Q9UM73 19-1620): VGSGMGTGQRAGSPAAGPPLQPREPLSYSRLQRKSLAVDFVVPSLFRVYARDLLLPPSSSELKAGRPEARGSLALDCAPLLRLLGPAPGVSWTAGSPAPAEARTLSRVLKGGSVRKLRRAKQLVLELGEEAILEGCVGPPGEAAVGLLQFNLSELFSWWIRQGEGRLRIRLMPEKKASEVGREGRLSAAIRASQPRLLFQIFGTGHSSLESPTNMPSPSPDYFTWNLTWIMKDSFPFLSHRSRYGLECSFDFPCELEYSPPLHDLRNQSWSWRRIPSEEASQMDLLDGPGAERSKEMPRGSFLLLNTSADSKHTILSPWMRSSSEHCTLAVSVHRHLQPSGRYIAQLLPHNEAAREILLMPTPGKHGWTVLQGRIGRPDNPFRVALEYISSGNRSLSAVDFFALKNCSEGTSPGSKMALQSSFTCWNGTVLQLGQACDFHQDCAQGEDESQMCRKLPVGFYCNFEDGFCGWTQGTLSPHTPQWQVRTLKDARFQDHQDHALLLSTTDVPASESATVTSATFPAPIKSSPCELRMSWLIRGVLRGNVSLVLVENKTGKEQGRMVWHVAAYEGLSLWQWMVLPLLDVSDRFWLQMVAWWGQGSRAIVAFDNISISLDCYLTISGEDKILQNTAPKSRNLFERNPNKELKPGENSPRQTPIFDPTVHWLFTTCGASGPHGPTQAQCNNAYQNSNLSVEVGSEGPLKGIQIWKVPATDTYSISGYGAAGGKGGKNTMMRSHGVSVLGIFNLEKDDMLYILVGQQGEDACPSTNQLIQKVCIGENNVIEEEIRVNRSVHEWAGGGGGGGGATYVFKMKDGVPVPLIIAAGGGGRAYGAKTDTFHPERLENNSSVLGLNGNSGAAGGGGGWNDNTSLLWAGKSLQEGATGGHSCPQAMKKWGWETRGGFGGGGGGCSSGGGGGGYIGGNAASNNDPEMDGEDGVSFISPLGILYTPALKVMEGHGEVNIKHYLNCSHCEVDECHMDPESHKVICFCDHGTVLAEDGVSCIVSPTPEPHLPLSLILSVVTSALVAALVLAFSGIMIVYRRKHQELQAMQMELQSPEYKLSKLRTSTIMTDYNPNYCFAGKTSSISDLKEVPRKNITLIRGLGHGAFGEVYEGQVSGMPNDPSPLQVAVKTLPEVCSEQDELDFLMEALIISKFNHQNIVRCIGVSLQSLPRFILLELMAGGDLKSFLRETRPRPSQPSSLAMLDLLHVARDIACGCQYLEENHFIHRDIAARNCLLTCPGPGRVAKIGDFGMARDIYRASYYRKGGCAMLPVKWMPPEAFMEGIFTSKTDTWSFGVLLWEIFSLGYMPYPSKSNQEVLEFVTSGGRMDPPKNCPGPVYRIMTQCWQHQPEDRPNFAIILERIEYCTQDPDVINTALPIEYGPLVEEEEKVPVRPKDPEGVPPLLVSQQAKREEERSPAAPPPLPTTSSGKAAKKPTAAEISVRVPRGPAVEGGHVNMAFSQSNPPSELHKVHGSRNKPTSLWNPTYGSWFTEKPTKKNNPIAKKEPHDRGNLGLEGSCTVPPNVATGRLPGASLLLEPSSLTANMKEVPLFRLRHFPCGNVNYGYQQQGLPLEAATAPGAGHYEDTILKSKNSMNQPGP
assay_notes: ALK Kinase Assay (ELISA-type, time-resolved fluorescence)
Type: biochemical
experimental_context: ALK kinase inhibition, 1 μM ATP; read-out: ALK Activity
pIC50: −log10 of the molar value.

Example molecules with recorded pIC50:
{"molecule": "CNC(=O)c1ccccc1Nc1nc(Nc2ccc3c(c2)CC(=O)NCC3)ncc1Cl", "value_observed": "> 7.00"}
{"molecule": "CNC(=O)c1cc(F)ccc1Nc1nc(Nc2ccc3c(c2)CN(C)C(=O)CC3)ncc1Cl", "value_observed": "5.00 to 6.00"}
{"molecule": "CC1(C)CCC(=O)Nc2cc(Nc3ncc(Cl)c(Nc4ccc(N5CCOCC5)cc4OCCC#N)n3)ccc21", "value_observed": "> 7.00"}
{"molecule": "CC(C)[C@H](Nc1nc(Nc2ccc3c(c2)CCOC(=O)N3C)ncc1Cl)C(N)=O", "value_observed": "5.00 to 6.00"}
{"molecule": "Cc1nnc(-c2ccccc2Nc2nc(Nc3ccc4c(c3)CCOC(=O)N4C)ncc2Cl)o1", "value_observed": "6.00 to 7.00"}

The molecule "CNC(=O)c1cccc(F)c1Nc1nc(Nc2ccc3c(c2)-n2ccnc2CCC3)ncc1Cl" , when measured on baculovirus-expressed ALK (Homo sapiens, UniProt Q9UM73), yielded pIC50 of > 7.00

The molecule "CNC(=O)c1sccc1Nc1nc(Nc2ccc3c(c2)OCCCN3C(=O)CN2CCCC2)ncc1Cl" , when measured on baculovirus-expressed ALK (Homo sapiens, UniProt Q9UM73), yielded pIC50 of 6.00 to 7.00

The molecule COc1cc2c(cc1Nc1ncc(Cl)c(NC3C4C=CC(C4)C3C(N)=O)n1)NC(=O)CN(Cc1ccccc1)C2 (stereo not shown) , when measured on baculovirus-expressed ALK (Homo sapiens, UniProt Q9UM73), yielded pIC50 of > 7.00

The molecule "COCCN1CCc2ccc(Nc3ncc(Cl)c(Nc4ccccc4S(=O)(=O)C(C)C)n3)cc2CC1" , when measured on baculovirus-expressed ALK (Homo sapiens, UniProt Q9UM73), yielded pIC50 of > 7.00

The molecule "CCN1C(=O)CN(C(C)=O)Cc2ccc(Nc3ncc(Cl)c(Nc4ccsc4C(=O)NC)n3)cc21" , when measured on baculovirus-expressed ALK (Homo sapiens, UniProt Q9UM73), yielded pIC50 of 5.00 to 6.00

The molecule "CS(=O)(=O)N[C@@H]1CCCC[C@H]1Nc1nc(Nc2cc(F)cc3c2OCCNC3=O)ncc1Cl" , when measured on baculovirus-expressed ALK (Homo sapiens, UniProt Q9UM73), yielded pIC50 of 6.00 to 7.00

The molecule "CN1C(=O)OCCc2cc(Nc3ncc(Cl)c(Nc4ccccc4-n4cccn4)n3)ccc21" , when measured on baculovirus-expressed ALK (Homo sapiens, UniProt Q9UM73), yielded pIC50 of > 7.00

The molecule "CNC(=O)c1cccc(Cl)c1Nc1nc(Nc2ccc3c(c2)CCC(=O)NC3(C)C)ncc1Cl" , when measured on baculovirus-expressed ALK (Homo sapiens, UniProt Q9UM73), yielded pIC50 of > 7.00

###

Documented IC50 across a set of molecules
tested_on: c-Met (cytoplasmic domain) (Homo sapiens, UniProt P08581)
Construct: 10 ng/mL c-Met (cytoplasmic domain, Invitrogen Corporation #PV3143); purchased Invitrogen Corporation PV3143
Sequence (P08581 956-1390 limits assumed): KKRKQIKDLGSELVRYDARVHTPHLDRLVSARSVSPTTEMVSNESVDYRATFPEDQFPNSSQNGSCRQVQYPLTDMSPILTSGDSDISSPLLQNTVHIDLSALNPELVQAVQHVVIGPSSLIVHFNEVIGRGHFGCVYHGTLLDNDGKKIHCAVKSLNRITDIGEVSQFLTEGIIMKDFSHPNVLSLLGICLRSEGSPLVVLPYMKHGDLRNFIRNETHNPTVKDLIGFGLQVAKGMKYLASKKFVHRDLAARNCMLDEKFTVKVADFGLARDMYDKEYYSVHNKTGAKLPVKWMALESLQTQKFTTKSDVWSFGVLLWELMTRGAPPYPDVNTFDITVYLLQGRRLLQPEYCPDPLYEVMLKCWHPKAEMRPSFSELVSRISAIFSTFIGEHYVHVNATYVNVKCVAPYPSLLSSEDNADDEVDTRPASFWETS
assay_notes: c-Met Kinase Assay (same methods as for ALK, with modifications)
Type: biochemical
experimental_context: 1 μM ATP (Km level), 10 ng/mL c-Met; read-out: cMet Activity (c-Met kinase inhibition, IC50 class)

Example molecules with recorded IC50:
{"molecule": "COc1cc2c(cc1Nc1ncc(Cl)c(Nc3ccccc3-n3cccn3)n1)CCC(N1CCOCC1)CC2 (centres unmarked) [Example 1052]", "IC50": "> 10000 nM"}
{"molecule": "COc1cc2c(cc1Nc1ncc(Cl)c(Nc3ccccc3S(=O)(=O)N3CCC(O)C3)n1)CCN(CC(=O)N(C)C)CC2 (centres unmarked) [Example 1188]", "IC50": "1000 to 10000 nM"}
{"molecule": "COc1cc2c(cc1Nc1ncc(Cl)c(Nc3ccccc3S(=O)(=O)N3CCC(O)C3)n1)CCC(N1CCN(C)CC1)CC2 (centres unmarked) [Example 1098]", "IC50": "1000 to 10000 nM"}
{"molecule": "COc1cccnc1-c1ccccc1Nc1nc(Nc2ccc3c(c2)CCC(O)CC3)ncc1Cl (centres unmarked) [Example 1019]", "IC50": "100 to 1000 nM"}
{"molecule": "CCN1C(=O)C(N)CCc2c1ccc(Nc1ncc(Cl)c(Nc3ccccc3S(=O)(=O)C(C)C)n1)c2OC (centres unmarked) [Example 1337]", "IC50": "> 10000 nM"}

Noted for COc1cc2c(cc1Nc1ncc(Cl)c(Nc3ccccc3S(=O)(=O)N(C)C)n1)CCN(CCS(C)(=O)=O)CC2 [Example 1152] : its IC50 reads 1000 to 10000 nM

Noted for COc1cc2c(cc1Nc1ncc(Cl)c(Nc3ccccc3S(=O)(=O)N(C)C)n1)CCN(C(=O)CN1CCOCC1)CC2 [Example 1192] : its IC50 reads 1000 to 10000 nM
